# SYSTEM TESTED: Human M4 (Homo sapiens, UniProt P08173)
# Construct: expressed in transfected cells
# Sequence (P08173 whole entry): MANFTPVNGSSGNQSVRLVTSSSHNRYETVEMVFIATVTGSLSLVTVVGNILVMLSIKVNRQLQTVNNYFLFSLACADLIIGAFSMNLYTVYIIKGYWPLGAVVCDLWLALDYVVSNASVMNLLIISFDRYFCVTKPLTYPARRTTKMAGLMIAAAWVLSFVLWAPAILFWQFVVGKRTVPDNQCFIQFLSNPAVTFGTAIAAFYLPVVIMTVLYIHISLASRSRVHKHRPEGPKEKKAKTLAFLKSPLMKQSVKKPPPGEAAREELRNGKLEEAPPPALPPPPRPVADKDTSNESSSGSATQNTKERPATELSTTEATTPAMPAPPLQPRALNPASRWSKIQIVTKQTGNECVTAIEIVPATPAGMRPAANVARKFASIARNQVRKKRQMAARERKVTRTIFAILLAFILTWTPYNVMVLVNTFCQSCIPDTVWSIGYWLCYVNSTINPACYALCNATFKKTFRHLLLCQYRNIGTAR
# METHOD DESCRIPTION: mAChR M4 cell-based functional assay (calcium flux, potentiation of EC20 acetylcholine response), hM4-Gqi5 CHO-K1 cells
# CONDITION DESCRIPTION: CHO-K1; Table 3; Human M4; % ACh maximum at 30 μM; read-out: Emax (% ACh maximum at 30 μM)
# Protocol: […] Calcium flux was measured using the Functional Drug Screening System (FDSS) 6000 or 7000 (Hamamatsu Corporation, Tokyo, Japan) as an increase in the fluorescent static ratio. […] Agonist activity was analyzed as a concentration-dependent increase in calcium mobilization upon compound addition. Positive allosteric modulator activity was analyzed as a concentration-dependent increase in the EC20 acetylcholine response. […]
Overview of recorded Emax at 30 µM for various compounds

- COMPOUND: "Cc1c(N2CCc3ncc(-c4ccc(F)nc4)cc3C2)nn2c(C(F)(F)F)nnc2c1C"
  Emax at 30 µM (%): 80
- COMPOUND: "Cc1c(N2CCc3ncc(N4CCOc5ccc(F)cc54)cc3C2)nn2c(C(F)(F)F)nnc2c1C"
  Emax at 30 µM (%): 83
- COMPOUND: "CC(=O)Nc1cnc2c(c1)CN(c1nn3cnnc3c(C)c1C)CC2"
  Emax at 30 µM (%): 84
- COMPOUND: "Cc1cnc2c(c1)CN(c1nn3cc(C(=O)N4CCCCC4)nc3cc1C)CC2"
  Emax at 30 µM (%): 105
- COMPOUND: "Cc1c(N2CCc3ncc(NC(=O)c4ccc(F)cc4)cc3C2)nn2cnnc2c1C"
  Emax at 30 µM (%): 79
- COMPOUND: "Cc1c(N2CCc3ncc(Oc4ccc(F)cc4F)cc3C2)nn2c(C(F)(F)F)nnc2c1C"
  Emax at 30 µM (%): 111
- COMPOUND: "Cc1c(N2CCc3ncc(-c4ccc(N5CCC(F)(F)C5)nc4)cc3C2)nn2cnnc2c1C"
  Emax at 30 µM (%): 85
- COMPOUND: "Cc1c(N2CCc3ncc(-c4ccc(N5CCCCC5)nc4)cc3C2)nn2cnnc2c1C"
  Emax at 30 µM (%): 86
- COMPOUND: "Cc1c(N2CCc3ncc(Oc4cc(F)ccc4F)cc3C2)nn2c(C(F)(F)F)nnc2c1C"
  Emax at 30 µM (%): 85
- COMPOUND: "Cc1c(N2CCc3ncc(N4CCCCC4)cc3C2)nn2c(C(F)(F)F)nnc2c1C"
  Emax at 30 µM (%): 76
- COMPOUND: "Cc1c(N2CCc3ncc(N4CCOc5ccccc54)cc3C2)nn2c(C(F)(F)F)nnc2c1C"
  Emax at 30 µM (%): 83
- COMPOUND: "Cc1c(N2CCc3ncc(-c4ccnn4C)cc3C2)nn2c(C(F)(F)F)nnc2c1C"
  Emax at 30 µM (%): 83
- COMPOUND: "COC1CCCN(c2cnc3c(c2)CN(c2nn4c(C(F)(F)F)nnc4c(C)c2C)CC3)C1 (stereo not drawn)"
  Emax at 30 µM (%): 106
- COMPOUND: "Cc1c(N2CCc3ncc(Nc4cnn(C)c4)cc3C2)nn2cnnc2c1C"
  Emax at 30 µM (%): 107
- COMPOUND: "COc1ccc(C(=O)Nc2cnc3c(c2)CN(c2nn4cnnc4c(C)c2C)CC3)cn1"
  Emax at 30 µM (%): 92
- COMPOUND: "Cc1c(N2CCc3ncc(N4CCOc5ncccc54)cc3C2)nn2c(C(F)(F)F)nnc2c1C"
  Emax at 30 µM (%): 87
- COMPOUND: "Cc1cc2nccn2nc1N1CCc2ncc(C(F)(F)F)cc2C1"
  Emax at 30 µM (%): 69
- COMPOUND: "Cc1c(N2CCc3ncc(Oc4ccccc4F)cc3C2)nn2cnnc2c1C"
  Emax at 30 µM (%): 109
- COMPOUND: "Cc1cc2nncn2nc1N1CCc2ncc(-c3ccns3)cc2C1"
  Emax at 30 µM (%): 93
- COMPOUND: "COc1ncc(F)cc1-c1cnc2c(c1)CN(c1nn3cnnc3c(C)c1C)CC2"
  Emax at 30 µM (%): 84
- COMPOUND: "Cc1cc2nncn2nc1N1CCc2ncc(Oc3cccc(F)c3F)cc2C1"
  Emax at 30 µM (%): 103
- COMPOUND: "Cc1c(N2CCc3ncc(C(C)(O)C4CC4)cc3C2)nn2cnnc2c1C (stereo not drawn)"
  Emax at 30 µM (%): 95
- COMPOUND: "CCn1cc(-c2cnc3c(c2)CN(c2nn4c(C(F)(F)F)nnc4c(C)c2C)CC3)cn1"
  Emax at 30 µM (%): 84
- COMPOUND: "Cc1cc2nncn2nc1N1CCc2ncc(Nc3csc4ncccc34)cc2C1"
  Emax at 30 µM (%): 65

src = patent US20250002507A1
